Below, each entry is listed with its recorded pIC50.
- target: T1, SARS-CoV-2 RBD-SD1 with murine IgG2a Fc part, produced in High Five cells (SARS-CoV-2, UniProt P0DTC2)
- T1 construct: source: High Five insect cells, transient transfection, purified (Protein A)
- testDetails: flow cytometry on cells
- testParameters: both partners purified
Scale: pIC50 equals -log10([C]), with [C] in mol/L.

{"binder": "STE72-1B6 scFv-Fc (scFv, V domains shown, also called scFv-hFc; source: Expi293F, transient transfection, purified (Protein A)) VH: QVKLVQSGGGLVQPGGSLRLSCAASGFTFSSYAMSWVRQAPGKGLEWVSGISGSGGSTYYADSVKGRFTISRDNSKNTLYLQVNSLRAEDTAVYYCAKAPYGDFRGLWYFDYWGQGTLVTVSS VL: DIVMTQSPFSVSASVGDRVTISCRASQDIRSWLAWYQQKPGKAPQLLIYDASSLQSGVPSRFSGSGSGTDFTLTISSLQPEDFATYYCQQADSVPLTFGGGTKVEIQ", "pIC50": 8.32}
{"binder": "STE72-2G4 scFv-Fc (scFv, V domains shown, also called scFv-hFc; source: Expi293F, transient transfection, purified (Protein A)) VH: QVQLVQSGAEVKKPGASVKVSCKASGYTFTSYGISWVRQAPGQGLEWMGWISAYNGNTNYAQKLQGRVTMTTDTSTSTAYMELRSLRSDDTAVYYCARFFYDSSGYSTDYWGQGTLVTVSS VL: ETTLTQSPAFMSVTPGDRAILSCRASQSVDSHLAWYHQKPGQPPRLLIYGASTRATGIPARFSGSRSGTEFTLTISGLQSEDLGVYYCQQYASWPPGYNFGQGTKLEIK", "pIC50": 8.43}

Please turn your attention to the following entry.
Prompt line: Quick one: give measured pIC50 for STE73-9G3 scFv-Fc (scFv, V domains shown, also called scFv-hFc; source: Expi293F, transient transfection, purified (Protein A)) VH: QVQLQESGGGLVQPGGSLRLSCAASGFTFSSYAMSWVRQAPGKGLEWVSAISGSGGSTYYADSVKGRFTISRDNSKNTLYLQMNSLRAEDTAVYYCARDLVLGSGSSNDWGRGTLVTVSS VL: QPVLTQPPSVSGAPGQSVTISCTGTDSNIGAGYNVHWYQQLPGAAPKLIISYTDNRPSGVPDRFSGSKSGTSASLAITGLQAEDEADYYCQSSDRTLVGSLFGTGTKVTVL
Response line: 8.47
